Assay: In-vivo pharmacokinetic study in rats after oral administration of EECQ extract
Details: male, SD, rat, serum, po, 400 mg/kg, oral 400 mg/Kg EECQ, mean ± SD, n = 6
Overview of reported AUC(0-inf) across a group of compounds:
Write down the numeric answer in µg·h/mL and omit the unit.

INSERT INTO measurements (compound, result_units, recorded_value) VALUES
  ('O=c1c(O)c(-c2ccc(O)c(O)c2)oc2cc(O)cc(O)c12', 'µg·h/mL', 0.471);

Supply recorded AUC(0-inf) for Oc1ccc(/C=C/c2cc(O)cc(O)c2)cc1 [trans-Resveratrol, trans-resveratrol] here.
0.157

* * *

Assay: In-vivo pharmacokinetic study in rats after oral administration of EECQ extract
Details: rat; oral 400 mg/Kg EECQ, male SD rats, serum, mean ± SD, n = 6
Quantity: AUC(0-t) (ng·h/mL)
Just the number in ng·h/mL, nothing appended.

INSERT INTO assay_data (molecule, quantity, recorded_value) VALUES
  ('Oc1ccc(/C=C/c2cc(O)cc(O)c2)cc1 [trans-Resveratrol, trans-resveratrol]', 'AUC(0-t)', 145);

Assign AUC(0-t) to the following record: O=c1c(O)c(-c2ccc(O)c(O)c2)oc2cc(O)cc(O)c12
447
